Biological target: Cys-less CYP3A4 (Homo sapiens, UniProt P08684, C239T/C377A/C468S/C58A/C64M/C98A)
Conditions: pH 7.4
pKd: −log10 of the molar value.
Test readout: pKd

{"columns": ["Compound structure", "Assay value"],
 "data": [
  ["CC(C)C[C@H]1C(=O)N2CCC[C@H]2[C@]2(O)O[C@](NC(=O)[C@@H]3C=C4c5cccc6[nH]c(Br)c(c56)C[C@H]4N(C)C3)(C(C)C)C(=O)N12", 6.35]
]}
